Measured Tm of individual entries
B1: Ribonuclease HI, P0A7Y4 (parent)
chain: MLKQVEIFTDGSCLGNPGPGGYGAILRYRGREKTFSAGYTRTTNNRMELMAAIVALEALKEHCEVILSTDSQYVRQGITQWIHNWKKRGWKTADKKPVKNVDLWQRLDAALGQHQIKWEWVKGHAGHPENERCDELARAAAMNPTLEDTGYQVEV

Variants of: B1
Conditions: Escherichia coli (strain K12); pH 3; Thermal; CD; glycine-HCl 10 mM; reversible: yes; structure 2RN2; whole UniProt chain shown
Write the answer as a number in °C, unit excluded.

Q113P ... 49.2
Y28F R29H G30A R31H ... 47.5
A125T ... 50.2

QUERY: Which Tm reading was recorded for the variant H62P ?
RESULT: 53.2

QUERY: Which Tm reading was recorded for the variant K91R K95G ?
RESULT: 55

QUERY: Which Tm reading was recorded for the variant D94E ?
RESULT: 49.8

QUERY: Which Tm reading was recorded for the variant K91R D94E ?
RESULT: 47.8

QUERY: Which Tm reading was recorded for the variant K91R D94E K95G ?
RESULT: 53.8
